TARGET: Carbonic anhydrase 2 (Homo sapiens, UniProt P00918)
ASSAY_ENDPOINT: log10(Ki) (log10 of the value in µM)
Base-10 log of Ki, unit µM.

{"columns": ["COMPOUND", "ASSAY_ENDPOINT", "EXPERIMENTAL_VALUE"],
 "data": [
  ["COc1ccc(S(=O)(=O)N(CC(=O)NO)OCc2ccc(OCc3ccccc3)cc2)cc1", "log10(Ki)", -1.02],
  ["COc1ccc(S(=O)(=O)N(CC(=O)NO)OCc2ccccc2)cc1", "log10(Ki)", -1.02],
  ["CCCCC(NOCc1ccc(Cl)cc1)C(=O)NO (centres undefined)", "log10(Ki)", 0.79],
  ["COc1ccc(S(=O)(=O)N(Cc2cccnc2)[C@@H](C(=O)NO)C(C)C)cc1 [CGS-27023A]", "log10(Ki)", 0.93],
  ["COc1ccc(S(=O)(=O)N(OC(C)C)C(C(=O)NO)C(C)C)cc1 (centres undefined)", "log10(Ki)", -1.03],
  ["CCON(CC(=O)NO)S(=O)(=O)c1ccc(OC)cc1", "log10(Ki)", 0.94],
  ["COc1ccc(S(=O)(=O)N(CC(=O)NO)OC2C3CC4CC(C3)CC2C4)cc1 (centres undefined)", "log10(Ki)", -1.02],
  ["CCC(C)ON(C(C(=O)NO)C(C)C)S(=O)(=O)c1ccc(OC)cc1 (centres undefined)", "log10(Ki)", 0.98]
]}

Continue with the compound presented below.
Query string: # input compound: O=C(CNOCc1ccc(Cl)cc1)NO ; wanted: its log10(Ki)
Result string: 0.68
